- System: A498 renal
- assay info: NCI tumour cell line growth inhibition, 48 h; in the data active = GI50 below about 0.43 µM; inactive = the rest
*1 amine or outer side, *2 acyl side, *3 side chain or, on linkers, in order; H or OH if unused. Where a SMILES comes first, the peptide text is derived from it. CO = O=C([*:1])[*:2]
Pick one: active, inactive

(Q) Would you mind telling me which call this test gave COc1cc2c(cc1OCCCCCN1CCN(c3cc(=O)oc4c(C)c(OC)ccc34)CC1)N=C[C@@H]1CCCN1C2=O ?
(A) active

(Q) Would you mind telling me which call this test gave O=S(=O)(NCCNc1cc(-c2cn(-c3ccccc3)nc2-c2cccc(O)c2)ccn1)c1ccc(F)cc1 ?
(A) inactive

(Q) Would you mind telling me which call this test gave Cc1cccc(Oc2ccc(Nc3ncnc4ccc(NC(=O)CN5CCN(C)CC5)cc34)cc2Cl)c1 ?
(A) inactive

(Q) Would you mind telling me which call this test gave CC(C)C(NC(=O)C(CCCN=C(N)N)NC(=O)NC(Cc1ccccc1)C(=O)O)C(=O)NC(C=O)CCCN=C(N)N (stereo not drawn) ({Phe-CO}-Arg-Val-Arg-aldehyde; configuration not given here) ?
(A) inactive
